Tested on: SNB-19 CNS
Test: NCI-60 one-dose screen, 48 h (100 = growth as untreated, 0 = no growth, -100 = all killed)
Conditions: 10 µM
This is part of a sample that, as a whole, favours compounds with a hit. Of some 83,000 tested, about 20% had one in any assay.
test readout: growth (%)
Write down the numeric answer in % and omit the unit.

{"compound": "C#CCNC(=O)[C@]12CCC(C)(C)C[C@H]1C1=CC[C@@H]3[C@@](C)(CCC#N)[C@H](C(=C)C)CC[C@@]3(C)[C@]1(C)CC2", "growth [%]": 64.3}
{"compound": "O=C(O)CCCCCCCCCCN1C(=O)/C(=C/c2cnc(-c3ccccc3)s2)SC1=S", "growth [%]": 100}
{"compound": "COc1ccc(C(=O)NC(=S)N2CCN(c3ncnc4c3cnn4-c3ccccc3)CC2)cc1", "growth [%]": 10.2}
{"compound": "Cc1noc2c(Cc3ccccc3)nn(CC(=O)N/N=C/c3ccc(F)cc3)c(=O)c12", "growth [%]": 32.4}

Summary line: CC1(c2ccccc2)NC(=O)N(CC(=O)Nc2ccc(C(=O)/C=C/c3ccccc3)cc2)C1=O (centres undefined) , SNB-19 CNS, reported growth = 66.1

Summary line: Cc1cc(=O)oc2cc(OCCCCOc3ccc(/C=C/C(=O)Nc4ccc(F)c(Cl)c4)cc3)ccc12 , SNB-19 CNS, reported growth = 93.4
